test system: NCI-H2087; assay: relative viability (nuclei count vs DMSO), 5 days (fraction); higher = more cells survive; details: first compound 0.02 µM
MEASUREMENT TYPE: relative viability

{"columns": ["COMPOUND", "TGT", "QUANTITATIVE RESULT"],
 "data": [
  ["CCNC(=O)c1noc(-c2cc(C(C)C)c(O)cc2O)c1-c1ccc(CN2CCOCC2)cc1 [Luminespib] + NC(=O)Nc1cc(-c2cccc(F)c2)sc1C(=O)N[C@H]1CCCNC1 [AZD7762] (partner 0.2 µM)", "NCI-H2087", 1.45],
  ["CN1CCN(CCOc2cc(OC3CCOCC3)c3c(Nc4c(Cl)ccc5c4OCO5)ncnc3c2)CC1 [Saracatinib] + Cc1cc(Nc2cc(N3CCN(C)CC3)nc(Sc3ccc(NC(=O)C4CC4)cc3)n2)n[nH]1 [Tozasertib] (partner 0.1 µM)", "NCI-H2087", 0.224],
  ["CN1CCN(CCOc2cc(OC3CCOCC3)c3c(Nc4c(Cl)ccc5c4OCO5)ncnc3c2)CC1 [Saracatinib] + CC(=O)c1c(C)c2cnc(Nc3ccc(N4CCNCC4)cn3)nc2n(C2CCCC2)c1=O [Palbociclib] (partner 0.5 µM)", "NCI-H2087", 0.252],
  ["CN1CCN(CCOc2cc(OC3CCOCC3)c3c(Nc4c(Cl)ccc5c4OCO5)ncnc3c2)CC1 [Saracatinib] + CC(C)C[C@H](NC(=O)[C@H](Cc1ccccc1)NC(=O)c1cnccn1)B(O)O [Bortezomib] (partner 0.002 µM)", "NCI-H2087", 0.87]
]}

// data source = the supplement of paper PMC10307832
